This section presents binders with their documented Expression Normalization to mAb 65C12 values.
- SYSTEM_TESTED: T1, human ASGR-1 mutant construct H203 (human, UniProt P07306 1-291)
- T1 construct: Arg/Glu scanning: non-arginine residues were changed to arginine; Transiently expressed on CHO-S cells
- T1 sequence: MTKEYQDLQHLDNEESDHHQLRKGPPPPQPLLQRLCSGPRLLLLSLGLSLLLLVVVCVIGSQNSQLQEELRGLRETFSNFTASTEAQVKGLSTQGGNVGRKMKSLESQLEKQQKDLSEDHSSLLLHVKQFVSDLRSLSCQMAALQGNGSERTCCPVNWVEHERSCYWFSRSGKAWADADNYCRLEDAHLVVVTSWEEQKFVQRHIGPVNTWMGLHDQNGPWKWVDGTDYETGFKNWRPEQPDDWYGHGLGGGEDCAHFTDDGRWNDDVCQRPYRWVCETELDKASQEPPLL
- ASSAY_COMMENT: FACS ratio: 65C12 geomean / this mAb geomean
Keep the answer to the number alone.

BINDER	Expression Normalization to mAb 65C12
56E5 (antibody, V domains shown, mAb) VH: QVQLVQSGAEVKKPGASVKVSCQASGYTFTGYHMHWVRQAPGQGLEWMGWINPNNNATNYAQKFQGRVTMTRDTSISTAYMELRRLRSDDTAVYHCARDGTSSFDYWGQGTLVTVSS VL: DIQMTQSPSSVSASVGDRVTITCRASQGIRKWLAWYQQKPGKAPKLLIYAASSLQSGVPSRFSGSGSGTDFTLTISSLQPEDFATYYCQQANSFPFTFGPGTKVDIK	1.27
198G3 (antibody, V domains shown, mAb) VH: QVQLVESGGGVVQPGRSLKLSCAASGFTFSTYGMHWVRQAPGKGLEWVAVIWYDGTNKNYADSVKGRFTISRDNSKNTLCLQMNSLRAEDTAVYYCARDQGVGYDGLDVWGQGTTVTVSS VL: DIQMAQSPSSLSASVGDRVTITCRTSQGIGKYLAWFQQKPGKAPKSLLYKASSLQGGVPSKFSGSGSGTDFTLTISSLQPEDFATYYCQQYMTYPLTFGGGTKVEIK	1.96
60E8 (antibody, V domains shown, mAb) VH: QVQLQESGPGLVRPSATLSLTCTVSGGSISRSSYYWGWIRQPPGKGLEWIGSIYYSGSASYNPSLKSRVTISVDTSENQFSLRLSSVTAADTAVYYCARLDSGWSFDYWGQGTLVTVSS VL: DIQMTQSPSSLSASVGDRVTFTCRASQGIRNDLGWFQQKPGKAPKRLIYAASSLQSGVPSRFSGSGSGTEFTLTISSLQPEDFATYYCLQHSSYPLTFGGGTKVEIK	17

As a next step, examine the binder that follows.
Given 197G3 (antibody, V domains shown, mAb) VH: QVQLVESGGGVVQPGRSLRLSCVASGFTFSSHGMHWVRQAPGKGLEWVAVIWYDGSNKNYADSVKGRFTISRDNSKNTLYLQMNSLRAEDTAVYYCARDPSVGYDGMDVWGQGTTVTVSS VL: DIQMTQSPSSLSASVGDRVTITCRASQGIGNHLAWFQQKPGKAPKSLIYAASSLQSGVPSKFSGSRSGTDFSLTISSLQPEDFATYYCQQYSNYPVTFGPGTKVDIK , respond with its Expression Normalization to mAb 65C12. 7.35
